- assayedSystem: SauCas9 (Staphylococcus aureus, UniProt J7RUA5)
- Sequence (J7RUA5 1-1053): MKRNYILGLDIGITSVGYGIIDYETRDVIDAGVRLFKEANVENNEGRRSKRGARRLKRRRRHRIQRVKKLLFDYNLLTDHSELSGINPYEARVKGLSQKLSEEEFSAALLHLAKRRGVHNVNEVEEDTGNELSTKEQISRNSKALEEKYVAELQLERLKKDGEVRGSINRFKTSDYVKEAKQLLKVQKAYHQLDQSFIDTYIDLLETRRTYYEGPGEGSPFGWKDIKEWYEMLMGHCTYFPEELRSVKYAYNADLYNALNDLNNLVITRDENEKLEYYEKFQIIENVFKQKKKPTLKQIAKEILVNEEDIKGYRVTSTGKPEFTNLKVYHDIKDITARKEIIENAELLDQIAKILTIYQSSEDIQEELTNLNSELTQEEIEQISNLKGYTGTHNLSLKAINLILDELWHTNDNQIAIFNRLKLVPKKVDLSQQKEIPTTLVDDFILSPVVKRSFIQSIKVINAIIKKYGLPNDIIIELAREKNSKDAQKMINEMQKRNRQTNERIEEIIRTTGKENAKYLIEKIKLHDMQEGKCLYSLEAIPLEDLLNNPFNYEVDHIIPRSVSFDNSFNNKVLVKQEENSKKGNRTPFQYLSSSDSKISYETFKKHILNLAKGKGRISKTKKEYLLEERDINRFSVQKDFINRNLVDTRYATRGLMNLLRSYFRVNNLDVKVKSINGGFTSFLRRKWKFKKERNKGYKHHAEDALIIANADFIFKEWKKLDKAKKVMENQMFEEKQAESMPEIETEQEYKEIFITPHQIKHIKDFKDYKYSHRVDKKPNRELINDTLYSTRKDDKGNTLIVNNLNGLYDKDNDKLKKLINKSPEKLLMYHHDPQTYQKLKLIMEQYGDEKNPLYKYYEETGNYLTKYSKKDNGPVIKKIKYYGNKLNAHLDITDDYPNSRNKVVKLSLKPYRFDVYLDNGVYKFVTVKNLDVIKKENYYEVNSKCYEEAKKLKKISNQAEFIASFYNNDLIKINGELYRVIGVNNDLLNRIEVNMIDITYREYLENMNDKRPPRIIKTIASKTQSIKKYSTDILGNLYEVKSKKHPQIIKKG
- testDescription: SauCas9-mediated genome editing of COSMC in HEK293FT cells, TIDE analysis
- Assay type: cell-based
pIC50: −log10 of the molar value.
# pIC50 listing for each entry below

compound: O=C(O)c1cc2ccccc2c(Cc2c(O)c(C(=O)O)cc3ccccc23)c1O [Pamoic acid]
pIC50: 4.30 to 4.70
--
compound: CC1(C)[C@@H](OC(=O)CCC(=O)O)CC[C@]2(C)[C@H]3C(=O)C=C4[C@@H]5C[C@@](C)(C(=O)O)CC[C@]5(C)CC[C@@]4(C)[C@]3(C)CC[C@@H]12 [Carbenoxolone]
pIC50: 4.30 to 4.70

Sourced from paper PMC11951523
